Cited source for all entries: patent US20240252527A9

The following compounds are listed with their measured EC90 values.
# Test system: 229E
# measurementNotes: 229E MRC5 CPE assay (cytopathic experiment)
# Type: cell-based, coronavirus 229E (HCoV-229E)
# testParameters: Human coronavirus 229E, MRC5, 72 h; read-out: 229E MRC5 CPE assay (μM) EC90
# Procedure: Cells were seeded into microplates at a certain density and cultured overnight in a incubator at 5% CO2, 37° C. The next day, double-diluted compound and virus were added. It was set up a cell control group (cells without treatment with a compound or virus infection), a virus control group (cells infected with virus, no compound treatment) and a culture medium control group (medium only). Cells were cultured in the incubator for 3 days (229E) or 7 days (OC43). […]
measurementType: EC90

{"compound": "CC(C)(C)C(=O)OCO[P@](=O)(OC[C@H]1O[C@@](C#N)(c2ccc3c(N)ncnn23)[C@H](O)[C@@H]1O)Oc1cccc2ccccc12 [Compound 217]", "assayResult": "> 0.5 µM"}
{"compound": "N#C[C@@]1(c2ccc3c(N)ncnn23)O[C@@H]2CO[P@@](=O)(Oc3ccccc3)O[C@H]2[C@H]1O [Compound 220]", "assayResult": "> 0.5 µM"}
{"compound": "CCO[P@@]1(=O)OC[C@H]2O[C@@](C#N)(c3ccc4c(N)ncnn34)[C@H](O)[C@@H]2O1 [Compound 230]", "assayResult": "> 0.5 µM"}
{"compound": "CC(C)(C)C(=O)OCO[P@@](=O)(OC[C@H]1O[C@@](C#N)(c2ccc3c(N)ncnn23)[C@H](O)[C@@H]1O)Oc1cccc2ccccc12 [Compound 216]", "assayResult": "> 0.5 µM"}
{"compound": "CCC(CC)COC(=O)[C@H](C)NP(=O)(OC[C@H]1O[C@@](C#N)(c2ccc3c(N)ncnn23)[C@H](O)[C@@H]1O)Oc1ccc(Nc2ccnc3cc(Cl)ccc23)cc1CN(CC)CC (stereo partly drawn) [Compound 016]", "assayResult": "> 0.5 µM"}
{"compound": "CCCC(CCC)C(=O)OCO[P@@](=O)(OC[C@H]1O[C@@](C#N)(c2ccc3c(N)ncnn23)[C@H](O)[C@@H]1O)Oc1ccccc1 [Compound 222]", "assayResult": "> 0.5 µM"}

* * *

# System: 229E
# measurementNotes: 229E MRC5 CPE assay (cytopathic experiment)
# Format: cell-based, coronavirus 229E (HCoV-229E)
# testParameters: Human coronavirus 229E, MRC5, 72 h, read-out: 229E MRC5 CPE assay (μM) EC90
The following compounds are listed with their measured EC90 values.
measurementType: EC90

{"compound": "CCCC(CCC)C(=O)OCO[P@](=O)(N[C@@H](Cc1ccccc1)C(=O)OCC(CC)CC)OC[C@H]1O[C@@](C#N)(c2ccc3c(N)ncnn23)[C@H](O)[C@@H]1O", "measurementType": "EC90", "assayResult": "0.1 to 0.5 µM"}
{"compound": "N#C[C@@]1(c2ccc3c(N)ncnn23)O[C@@H]2CO[P@](=O)(OCOC(=O)Oc3ccccc3)O[C@H]2[C@H]1O", "measurementType": "EC90", "assayResult": "> 0.5 µM"}
{"compound": "CCC(CC)COC(=O)[C@H](C)N[P@]1(=O)OC[C@H]2O[C@@](C#N)(c3ccc4c(N)ncnn34)[C@H](O)[C@@H]2O1", "measurementType": "EC90", "assayResult": "0.1 to 0.5 µM"}
{"compound": "CCCC(CCC)C(=O)OCO[P@](=O)(NC(C)(C)C(=O)OC(C)C)OC[C@H]1O[C@@](C#N)(c2ccc3c(N)ncnn23)[C@H](O)[C@@H]1O", "measurementType": "EC90", "assayResult": "0.1 to 0.5 µM"}
{"compound": "CCC(CC)COC(=O)[C@H](C)NP(=O)(OCC(=O)OC(C)C)OC[C@H]1O[C@@](C#N)(c2ccc3c(N)ncnn23)[C@H](O)[C@@H]1O (some centres unmarked)", "measurementType": "EC90", "assayResult": "> 0.5 µM"}
{"compound": "N#C[C@@]1(c2ccc3c(N)ncnn23)O[C@H](COP(=O)(OCOC(=O)C2CCCC2)OCOC(=O)C2CCCC2)[C@@H](O)[C@H]1O", "measurementType": "EC90", "assayResult": "> 0.5 µM"}
{"compound": "CC(C)(C)C(=O)O[C@@H]1[C@@H]2O[P@@](=O)(O)OC[C@H]2O[C@@]1(C#N)c1ccc2c(N)ncnn12", "measurementType": "EC90", "assayResult": "> 0.5 µM"}
{"compound": "CCCN(CCC)S(=O)(=O)c1ccc(C(=O)OCO[P@@](=O)(N[C@@H](C)C(=O)OCC(CC)CC)OC[C@H]2O[C@@](C#N)(c3ccc4c(N)ncnn34)[C@H](O)[C@@H]2O)cc1", "measurementType": "EC90", "assayResult": "> 0.5 µM"}
{"compound": "N#C[C@@]1(c2ccc3c(N)ncnn23)O[C@@H]2CO[P@](=O)(OCOC(=O)CCCc3ccccc3)O[C@H]2[C@H]1O", "measurementType": "EC90", "assayResult": "< 0.1 µM"}
{"compound": "CCCC(CCC)C(=O)OCO[P@](=O)(N[C@H](C)C(=O)OC(C)C)OC[C@H]1O[C@@](C#N)(c2ccc3c(N)ncnn23)[C@H](O)[C@@H]1O", "measurementType": "EC90", "assayResult": "0.1 to 0.5 µM"}
{"compound": "CC(C)(C)C(=O)OCO[P@]1(=O)OCC2O[C@@](C#N)(c3ccc4c(N)ncnn34)[C@H](O)[C@@H]2O1 (some centres unmarked)", "measurementType": "EC90", "assayResult": "> 0.5 µM"}
{"compound": "CCC(CC)COC(=O)[C@H](C)N[P@@]1(=O)OC[C@H]2O[C@@](C#N)(c3ccc4c(N)ncnn34)[C@H](O)[C@@H]2O1", "measurementType": "EC90", "assayResult": "> 0.5 µM"}
{"compound": "CCC(CC)COC(=O)[C@H](C)NP(=O)(OCOC(=O)c1cccnc1)OC[C@H]1O[C@@](C#N)(c2ccc3c(N)ncnn23)[C@H](O)[C@@H]1O (some centres unmarked)", "measurementType": "EC90", "assayResult": "> 0.5 µM"}
{"compound": "CC(C)OC(=O)C(C)(C)N[P@@](=O)(OCOC(=O)CCCc1ccccc1)OC[C@H]1O[C@@](C#N)(c2ccc3c(N)ncnn23)[C@H](O)[C@@H]1O", "measurementType": "EC90", "assayResult": "> 0.5 µM"}
{"compound": "CC(C)OC(=O)CO[P@@]1(=O)OC[C@H]2O[C@@](C#N)(c3ccc4c(N)ncnn34)[C@H](O)[C@@H]2O1", "measurementType": "EC90", "assayResult": "> 0.5 µM"}
{"compound": "[2H]c1cc([C@]2(C#N)O[C@@H]3CO[P@](=O)(O)O[C@H]3[C@H]2OC(=O)C(CCC)CCC)n2ncnc(N)c12", "measurementType": "EC90", "assayResult": "> 0.5 µM"}
{"compound": "N#C[C@@]1(c2ccc3c(N)ncnn23)O[C@H](COP(=O)(OCOC(=O)OC2CCCC2)OCOC(=O)OC2CCCC2)[C@@H](O)[C@H]1O", "measurementType": "EC90", "assayResult": "0.1 to 0.5 µM"}
{"compound": "N#C[C@@]1(c2ccc3c(N)ncnn23)O[C@@H]2COP(=O)(O)O[C@H]2[C@H]1OC(=O)CCCc1ccccc1", "measurementType": "EC90", "assayResult": "0.1 to 0.5 µM"}
{"compound": "CC(C)OC(=O)C(C)(C)N[P@](=O)(OCOC(=O)CCCc1ccccc1)OC[C@H]1O[C@@](C#N)(c2ccc3c(N)ncnn23)[C@H](O)[C@@H]1O", "measurementType": "EC90", "assayResult": "> 0.5 µM"}
{"compound": "[2H]c1cc([C@]2(C#N)O[C@@H]3CO[P@@](=O)(OCCSC(=O)C(C)(C)C)O[C@H]3[C@H]2O)n2ncnc(N)c12", "measurementType": "EC90", "assayResult": "< 0.1 µM"}
{"compound": "[2H]c1cc([C@]2(C#N)O[C@H](COP(=O)(OCOC(=O)C(CCC)CCC)OCOC(=O)C(CCC)CCC)[C@@H](O)[C@H]2O)n2ncnc(N)c12", "measurementType": "EC90", "assayResult": "> 0.5 µM"}
{"compound": "CCCC(CCC)C(=O)OCO[P@@](=O)(NC(C)(C)C(=O)OCC(CC)CC)OC[C@H]1O[C@@](C#N)(c2ccc3c(N)ncnn23)[C@H](O)[C@@H]1O", "measurementType": "EC90", "assayResult": "0.1 to 0.5 µM"}
{"compound": "CCCC(CCC)C(=O)OCNc1ncnn2c([C@]3(C#N)O[C@H](COP(=O)(OCOC(=O)C(CCC)CCC)OCOC(=O)C(CCC)CCC)[C@@H](O)[C@H]3O)ccc12", "measurementType": "EC90", "assayResult": "> 0.5 µM"}
